Target: sGC α1/β1 heterodimer (Homo sapiens (Human), UniProt Q02108+Q02153)
Sequence (Q02108 whole entry): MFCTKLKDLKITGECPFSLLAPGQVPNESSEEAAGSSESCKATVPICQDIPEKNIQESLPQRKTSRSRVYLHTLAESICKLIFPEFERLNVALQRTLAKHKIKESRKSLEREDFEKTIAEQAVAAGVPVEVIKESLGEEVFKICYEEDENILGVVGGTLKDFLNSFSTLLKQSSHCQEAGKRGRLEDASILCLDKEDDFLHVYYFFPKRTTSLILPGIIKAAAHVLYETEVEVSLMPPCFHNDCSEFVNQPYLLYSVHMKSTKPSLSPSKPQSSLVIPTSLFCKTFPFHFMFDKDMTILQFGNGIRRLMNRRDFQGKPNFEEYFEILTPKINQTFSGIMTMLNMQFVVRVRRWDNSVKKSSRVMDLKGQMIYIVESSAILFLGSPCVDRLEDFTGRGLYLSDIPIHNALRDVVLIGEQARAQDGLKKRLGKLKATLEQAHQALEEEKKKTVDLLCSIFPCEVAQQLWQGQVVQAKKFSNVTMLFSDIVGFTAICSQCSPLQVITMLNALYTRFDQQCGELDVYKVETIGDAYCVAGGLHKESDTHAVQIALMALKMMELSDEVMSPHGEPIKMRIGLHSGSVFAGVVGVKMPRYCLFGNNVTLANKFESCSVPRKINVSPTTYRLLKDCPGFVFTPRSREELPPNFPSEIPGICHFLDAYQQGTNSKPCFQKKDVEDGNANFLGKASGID
Sequence (Q02153 whole entry): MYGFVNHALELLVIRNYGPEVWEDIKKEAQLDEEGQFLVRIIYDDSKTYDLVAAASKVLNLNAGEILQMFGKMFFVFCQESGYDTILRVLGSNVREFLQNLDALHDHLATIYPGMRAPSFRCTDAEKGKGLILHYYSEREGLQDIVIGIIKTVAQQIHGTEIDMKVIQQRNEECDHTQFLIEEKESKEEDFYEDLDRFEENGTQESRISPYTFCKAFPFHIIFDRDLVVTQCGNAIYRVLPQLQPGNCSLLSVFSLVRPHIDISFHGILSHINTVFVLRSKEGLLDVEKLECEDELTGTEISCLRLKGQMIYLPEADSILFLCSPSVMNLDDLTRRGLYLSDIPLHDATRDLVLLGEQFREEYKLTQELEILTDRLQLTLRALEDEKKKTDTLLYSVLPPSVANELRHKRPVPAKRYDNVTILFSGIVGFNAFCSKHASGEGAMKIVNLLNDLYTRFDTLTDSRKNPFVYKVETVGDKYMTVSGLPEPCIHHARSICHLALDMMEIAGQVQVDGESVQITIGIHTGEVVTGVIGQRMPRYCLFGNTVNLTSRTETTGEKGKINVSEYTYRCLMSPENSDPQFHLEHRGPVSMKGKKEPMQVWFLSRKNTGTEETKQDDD
Test: Cell-based sGC functional assay (cyclic GMP assay for sGC activator: CASA assay)
Settings: inflection point, 4P fit; CHO-K1/sGC cells; read-out: IP
attribute measured: EC50 (nM)

INSERT INTO assay_data (molecule, experimental_system, attribute_measured, observed_result) VALUES
  ('CC(C)(Cc1cccc(C2(C)C(=O)Nc3nc(-c4nn(CCC(F)(F)C(F)(F)F)c5cc(Cl)ccc45)nc(N)c32)c1)C(=O)O (stereo not drawn) [Example 27B]', 'sGC α1/β1 heterodimer (Homo sapiens (Human), UniProt Q02108+Q02153)', 'EC50', 331),
  ('C[C@@]1(c2ccc(CCC(=O)O)cc2)C(=O)Nc2nc(-c3nn(Cc4ncccc4F)c4cc(Cl)ccc34)nc(N)c21 (single isomer, unassigned) [Example 57B]', 'sGC α1/β1 heterodimer (Homo sapiens (Human), UniProt Q02108+Q02153)', 'EC50', 1080),
  ('C[C@@]1(c2ccc(CCC(=O)O)cc2)C(=O)Nc2nc(-c3nn(Cc4ccc(F)cc4)c4cc(Cl)ccc34)nc(N)c21 [Example 65B]', 'sGC α1/β1 heterodimer (Homo sapiens (Human), UniProt Q02108+Q02153)', 'EC50', 1100),
  ('C[C@@]1(c2ccc(CCc3nn[nH]n3)cc2)C(=O)Nc2nc(-c3nn(Cc4ccccc4F)c4cc(Cl)ccc34)nc(N)c21 [Example 112B]', 'sGC α1/β1 heterodimer (Homo sapiens (Human), UniProt Q02108+Q02153)', 'EC50', 2520);

a. CC1(c2ccc(CCS(=O)(=O)O)cc2)C(=O)Nc2nc(-c3nn(Cc4ccccc4F)c4cc(Cl)ccc34)nc(N)c21 (single isomer, unassigned) [Example 258B]
b. CC(C)(C)CCCn1nc(-c2nc(N)c3c(n2)NC(=O)[C@@]3(C)c2ccc(CCC(=O)O)cc2)c2ccc(Cl)cc21 [Example 52B]
IN: Lowest EC50? choose a or b Answer by quoting the chosen item's label.
OUT: b
(b: 504 nM, a: 1730 nM)

1. CC1(c2ccc(/C=C/C(=O)O)cc2)C(=O)Nc2nc(-c3nn(Cc4ccccc4F)c4ncccc34)nc(N)c21 (stereo not drawn) [Example 217A]
2. CC(C)(Cc1csc([C@]2(C)C(=O)Nc3nc(-c4nn(Cc5ccccc5F)c5cc(Cl)ccc45)nc(N)c32)n1)C(=O)O [Example 95B]
3. C[C@@]1(c2ccc(CCC(=O)O)cc2)C(=O)Nc2nc(-c3nn(CCC(F)(F)C(F)(F)F)c4cc(F)ccc34)nc(N)c21 [Example 46B]
4. CC1CCC(Cn2nc(-c3nc(N)c4c(n3)NC(=O)[C@@]4(C)c3nc(CC(C)(C)C(=O)O)cs3)c3cccnc32)CC1 (single isomer, unassigned) [Example 125AB]
5. CC1(c2ccc(Cc3nn[nH]n3)cc2)C(=O)Nc2nc(-c3nn(Cc4ccccc4F)c4cc(Cl)ccc34)nc(N)c21 (stereo not drawn) [Example 244A]
IN: Order the records so the highest EC50 appears first and the lowest last. In plain terms: list the labels in the order you were asked to.
OUT: 5, 1, 3, 2, 4
(5: 2730 nM, 1: 1420 nM, 3: 647 nM, 2: 157 nM, 4: 56 nM)

1. CC(C)(Cc1coc(C2(C)C(=O)Nc3nc(-c4nn(Cc5ccccc5F)c5cc(Cl)ccc45)nc(N)c32)n1)C(=O)O (stereo not drawn)
2. Cc1cccc(Cn2nc(-c3nc(N)c4c(n3)NC(=O)C4(C)c3cnn(CC(C)(C)C(=O)O)c3)c3ccc(F)cc32)c1F (stereo not drawn) [Example 211A]
IN: Lowest EC50? choose 1 or 2 Answer by quoting the chosen item's label.
OUT: 1

* * *

Biological target: sGC α1/β1 heterodimer (Homo sapiens (Human), UniProt Q02108+Q02153)
Test: Cell-based sGC functional assay (cyclic GMP assay for sGC activator: CASA assay)
Conditions: inflection point, 4P fit; CHO-K1/sGC cells; read-out: IP
attribute measured: EC50 (nM)

INSERT INTO assay_data (compound, attribute_measured, unit_of_measurement, observed_result) VALUES
  ('CC(C)(Cc1coc(C2(C)C(=O)Nc3nc(-c4nn(Cc5ccccc5F)c5ncccc45)nc(N)c32)n1)C(=O)O (stereo not shown)', 'EC50', 'nM', 409);

I. CC(C)(Cc1csc([C@]2(C)C(=O)Nc3nc(-c4nn(Cc5ccccc5F)c5ncc(F)cc45)nc(N)c32)n1)C(=O)O [Example 91B]
II. C[C@@]1(c2ccc(CCC(=O)O)cc2)C(=O)Nc2nc(-c3nn(CC4CCCCO4)c4cc(Cl)ccc34)nc(N)c21 (single isomer, unassigned)
IN: Lowest EC50? choose I or II Answer by quoting the chosen item's label.
OUT: I

P. CCCCn1nc(-c2nc(N)c3c(n2)NC(=O)C3(C)c2cn(CCC(=O)O)nn2)c2ccc(Cl)cc21 (stereo not shown) [Example 36B]
Q. CC1(c2nc(-c3ccc(C(=O)O)cc3)cs2)C(=O)Nc2nc(-c3nn(Cc4ccccc4F)c4ncccc34)nc(N)c21 (stereo not shown) [Example 147A]
IN: From the recorded data, which exceeds the other in EC50: P or Q ? Answer by quoting the chosen item's label.
OUT: P
(P: 916 nM, Q: 61 nM)

I. CC(C)(Cc1coc(C2(C)C(=O)Nc3nc(-c4nn(CC5CCCCO5)c5ccccc45)nc(N)c32)n1)C(=O)O (single isomer, unassigned) [Example 230AA]
II. CC(C)(Cc1coc(C2(C)C(=O)Nc3nc(-c4nn(Cc5ccccc5F)c5ccccc45)nc(N)c32)n1)c1nn[nH]n1 (stereo not shown) [Example 248B]
III. CC(C)(Cc1coc(C2(C)C(=O)Nc3nc(-c4nn(Cc5cccc(F)c5)c5ccccc45)nc(N)c32)n1)C(=O)O (stereo not shown) [Example 223A]
IV. CC1(c2ccc(CCC(=O)O)c(C#N)c2)C(=O)Nc2nc(-c3nn(CCC(F)(F)C(F)(F)F)c4cc(Cl)ccc34)nc(N)c21 (stereo not shown) [Example 120B]
V. CC(Cc1ccc(C2(C)C(=O)Nc3nc(-c4nn(CCC(F)(F)C(F)(F)F)c5cc(Cl)ccc45)nc(N)c32)cc1)C(=O)O (single isomer, unassigned) [Example 34AA]
IN: Arrange items by their EC50 values in increasing order. In plain terms: list the labels in the order you were asked to.
OUT: II, III, V, I, IV
(II: 116 nM, III: 210 nM, V: 437 nM, I: 821 nM, IV: 1930 nM)

* * *

Molecular target: sGC α1/β1 heterodimer (Homo sapiens (Human), UniProt Q02108+Q02153)
Assay: Cell-based sGC functional assay (cyclic GMP assay for sGC activator: CASA assay)
Settings: CHO-K1, activity expressed as percentage of compound A (standard); CHO-K1/sGC cells; read-out: % Activation
attribute measured: Emax (%)

INSERT INTO assay_data (compound, attribute_measured, observed_result) VALUES
  ('CC(C)(Cc1csc([C@]2(C)C(=O)Nc3nc(-c4nn(Cc5c(F)ccc(F)c5F)c5ccccc45)nc(N)c32)n1)C(=O)O [Example 224A]', 'Emax', 111),
  ('CC(C)(Cc1csc([C@]2(C)C(=O)Nc3nc(-c4nn(CC5CCCCO5)c5cc(F)ccc45)nc(N)c32)n1)C(=O)O (single isomer, unassigned) [Example 133AA]', 'Emax', 104),
  ('Cc1ccnc(Cn2nc(-c3nc(N)c4c(n3)NC(=O)[C@@]4(C)c3nc(CC(C)(C)C(=O)O)cs3)c3ccc(Cl)cc32)c1F [Example 216A]', 'Emax', 132),
  ('Cc1oc(C2(C)C(=O)Nc3nc(-c4nn(Cc5cccc(F)c5)c5cc(Cl)ccc45)nc(N)c32)nc1CC(C)(C)C(=O)O (stereo not shown) [Example 176B]', 'Emax', 118),
  ('CC(C)(Cc1csc([C@]2(C)C(=O)Nc3nc(-c4nn(Cc5ccccc5F)c5cc(Cl)ccc45)nc(N)c32)n1)c1nn[nH]n1 [Example 238A]', 'Emax', 99.5),
  ('Cc1ccc2c(-c3nc(N)c4c(n3)NC(=O)[C@@]4(C)c3ccc(CCC(=O)O)cc3)nn(Cc3ccc(C)c(F)c3F)c2n1 [Example 25B]', 'Emax', 147);

a. Cc1ccc(Cn2nc(-c3nc(N)c4c(n3)NC(=O)[C@@]4(C)c3ccc(CCC(=O)O)cc3)c3ccc(Cl)cc32)cc1 [Example 67B]
b. C[C@@]1(c2ccc(CCC(=O)N[C@H](CO)C(=O)O)cc2)C(=O)Nc2nc(-c3nn(Cc4ccccc4F)c4ncccc34)nc(N)c21 [Example 106B]
IN: Lowest Emax? choose a or b Answer by quoting the chosen item's label.
OUT: b

* * *

Molecular target: sGC α1/β1 heterodimer (Homo sapiens (Human), UniProt Q02108+Q02153)
Test: Cell-based sGC functional assay (cyclic GMP assay for sGC activator: CASA assay)
Conditions: inflection point, 4P fit; CHO-K1/sGC cells; read-out: IP
attribute measured: EC50 (nM)

INSERT INTO results (compound, observed_result) VALUES
  ('CC(C)(Cc1csc([C@]2(C)C(=O)Nc3nc(-c4nn(CC5CCCCO5)c5ccccc45)nc(N)c32)n1)C(=O)O (single isomer, unassigned) [Example 229AA]', 770),
  ('CC(C)(Cc1csc([C@]2(C)C(=O)Nc3nc(-c4nn(Cc5ccccc5F)c5ncccc45)nc(N)c32)n1)c1nn[nH]n1 [Example 241A]', 403),
  ('CC(C)(Cc1ccc(C2(C)C(=O)Nc3nc(-c4nn(CCC(F)(F)C(F)(F)F)c5ncccc45)nc(N)c32)nc1)C(=O)O (stereo not drawn)', 1360);

a. CC(C)(Cc1csc([C@]2(C)C(=O)Nc3nc(-c4nn(Cc5ccccc5F)c5cc(Cl)ccc45)nc(N)c32)n1)c1nn[nH]n1 [Example 238A]
b. CC(C)(Cc1ccc(C2(C)C(=O)Nc3nc(-c4nn(CCCC(F)(F)F)c5cc(Cl)ccc45)nc(N)c32)cc1)C(=O)O (stereo not drawn) [Example 42B]
IN: From the recorded data, which exceeds the other in EC50: a or b ? Answer by quoting the chosen item's label.
OUT: b
